# key: entry, value: IC50
- Tgt: Recombinant human renin (Homo sapiens)
- Construct: isolate the active form (residues 67-406); made in house; host or cells: FreeStyle 293-F cells, transient expression of pcDNA3.1(+)/hREN
- Assay Remarks: In vitro enzymatic activity assay of renin inhibitors (fluorescence, QXL520/HiLyteFluo488 peptide substrate)
- Format: biochemical
- Test Conditions: recombinant human renin 3 nM, 1 μM substrate, pre-incubated 10 minutes at 37° C., incubation one hour, pH 7.4, 5% DMSO; read-out: IC50 of Exemplified Compounds Against Renin

Some compounds with recorded IC50:
Input: # lookup: IC50 of COCCCOc1ccccc1-n1c(-c2ccccc2)c(C(=O)N2CCNCC2)[nH]c1=O [Example 33]
Output: > 1 µM

Input: Can you handle CCCCN1CCCc2ccc(-n3c(-c4ccccc4)c(C(=O)N4CCNC[C@H]4Cc4ccccc4)[nH]c3=O)cc21 [Example 131] next?
Output: < 0.1 µM

Input: Can you handle CCCCS(=O)(=O)Nc1ccccc1-n1c(-c2ccccc2)c(C(=O)N2CCNC[C@H]2Cc2ccccc2)[nH]c1=O [Example 128] next?
Output: < 0.1 µM

Input: Can you handle COc1ccccc1-n1c(-c2ccccc2)c(C(=O)N2CCNCC2)n(CCNS(=O)(=O)c2ccccc2)c1=O [Example 158] next?
Output: > 1 µM

More entries:
Input: # lookup: IC50 of Cc1ccccc1-n1c(-c2ccccc2)c(C(=O)N2CCNCC2)n(CCNC(=O)c2ccc(Cl)cc2)c1=O [Example 233]
Output: 0.5 to 1 µM

Input: Can you handle O=C(c1[nH]c(=O)n(-c2ccccc2)c1-c1cccc(F)c1)N1CCNCC1 [Example 21] next?
Output: > 1 µM

Input: Can you handle O=C(c1c(-c2ccccc2)n([C@H]2CCCC[C@H]2O)c(=O)n1CC1CCCCC1)N1CCNCC1 [Example 157] next?
Output: > 1 µM

Input: Can you handle O=C(c1[nH]c(=O)n(-c2ccccn2)c1-c1ccccc1)N1CCNCC1 [Example 19] next?
Output: > 1 µM

Input: Can you handle CC(=O)N1CCCC(n2c(-c3ccccc3)c(C(=O)N3CCNCC3)[nH]c2=O)C1 (stereo not drawn) [Example 94] next?
Output: > 1 µM

Input: Can you handle C=CCn1c(C(=O)N2CCNCC2)c(-c2ccccc2)n(-c2ccccc2OC)c1=O [Example 145] next?
Output: > 1 µM

Input: Can you handle O=C(c1[nH]c(=O)n(C2CCCCC2)c1-c1ccccc1)N1CCNC[C@H]1Cc1ccccc1 [Example 111] next?
Output: < 0.1 µM

Input: Can you handle C=CCn1c(C(=O)N2CCNC[C@H]2Cc2ccccc2)c(-c2ccccc2)n(C2CCCCC2)c1=O [Example 64] next?
Output: < 0.1 µM

Input: Can you handle O=C(c1c(-c2ccccc2)n(C2CCCC[C@@H]2O)c(=O)n1CCCNS(=O)(=O)c1ccccc1)N1CCNCC1 (stereo partly drawn) [Example 171] next?
Output: > 1 µM

Input: Can you handle COc1ccccc1-n1c(-c2ccccc2)c(C(=O)N2CCNCC2)n(CCNC(=O)c2ccccc2)c1=O [Example 168] next?
Output: 0.1 to 0.5 µM

Input: Can you handle O=C(NCCCn1c(C(=O)N2CCNCC2)c(-c2ccccc2)n(C2CCCC[C@@H]2O)c1=O)c1ccccc1 (stereo partly drawn) [Example 170] next?
Output: > 1 µM

---

- Tgt: Recombinant human renin (Homo sapiens, UniProt P00797)
- Construct: isolate the active form (residues 67-406); made in house; host or cells: FreeStyle 293-F cells, transient expression of pcDNA3.1(+)/hREN
- Sequence (P00797 67-406): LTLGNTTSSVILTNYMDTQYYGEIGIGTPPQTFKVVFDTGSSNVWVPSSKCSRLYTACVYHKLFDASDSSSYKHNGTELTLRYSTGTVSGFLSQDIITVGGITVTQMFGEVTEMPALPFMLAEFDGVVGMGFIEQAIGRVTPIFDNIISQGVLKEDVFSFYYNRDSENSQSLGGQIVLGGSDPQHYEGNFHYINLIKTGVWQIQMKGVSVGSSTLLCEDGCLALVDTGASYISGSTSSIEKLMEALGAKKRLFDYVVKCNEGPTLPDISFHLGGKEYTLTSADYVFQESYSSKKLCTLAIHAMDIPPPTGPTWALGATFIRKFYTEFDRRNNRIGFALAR
- Assay Remarks: In vitro enzymatic activity assay of renin inhibitors (fluorescence, QXL520/HiLyteFluo488 peptide substrate)
- Assay type: biochemical
- Test Conditions: recombinant human renin 3 nM, 1 μM substrate, pre-incubated 10 minutes at 37° C., incubation one hour, pH 7.4, 5% DMSO; read-out: IC50 of Exemplified Compounds Against Renin
Measured Quantity: IC50

Input: # lookup: IC50 of O=C(c1c(-c2ccccc2)n(-c2cccc(N3CCOCC3)c2)c(=O)n1Cc1cccc(OCc2ccccc2)c1)N1CCNCC1 [Example 76]
Output: < 100 nM

Input: Can you handle COc1ccccc1NC(=O)NCCn1c(C(=O)N2CCNCC2)c(-c2ccccc2)n(-c2ccccc2C)c1=O [Example 214] next?
Output: 500 to 1000 nM

More entries:
Input: # lookup: IC50 of COc1cc(-c2cc(Cn3c(C(=O)N4CCNCC4)c(-c4ccccc4)n(C4CCCCC4)c3=O)cc(-c3ccnc(OC)c3)n2)ccn1 [Example 17E]
Output: 100 to 500 nM

Input: Can you handle O=C(c1c(-c2ccccc2)n(C2CCCCC2)c(=O)n1Cc1cccc(-n2cccc2)c1)N1CCNCC1 [Example 72] next?
Output: 100 to 500 nM

Input: Can you handle O=C(c1[nH]c(=O)n(-c2cccc(N3CCOCC3)c2)c1-c1ccccc1)N1CCNC[C@H]1Cc1ccccc1 [Example 110] next?
Output: < 100 nM

Input: Can you handle Cc1ccccc1-n1c(-c2ccccc2)c(C(=O)N2CCNCC2)n(CCNC(=O)Nc2ccc(Cl)cc2)c1=O [Example 213] next?
Output: 100 to 500 nM

Input: Can you handle O=C(c1cccc(Cn2c(C(=O)N3CCNCC3)c(-c3ccccc3)n(-c3cccc(N4CCOCC4)c3)c2=O)c1)N1CCOCC1 [Example 57] next?
Output: > 1000 nM

Input: Can you handle C=CCn1c(C(=O)N2CCNCC2)c(-c2ccccc2)n(C2CCCCC2)c1=O [Example 62] next?
Output: > 1000 nM

Input: Can you handle Cn1c(C(=O)N2CCNCC2)c(-c2ccccc2)n(C2CCCCC2)c1=O [Example 60] next?
Output: > 1000 nM

Input: Can you handle Cc1ccccc1-n1c(-c2ccccc2)c(C(=O)N2CCNCC2)n(CCCNS(=O)(=O)c2ccccc2)c1=O [Example 162] next?
Output: 100 to 500 nM

---

- Tgt: Recombinant human renin (Homo sapiens, UniProt P00797)
- Construct: isolate the active form (residues 67-406); made in house; host or cells: FreeStyle 293-F cells, transient expression of pcDNA3.1(+)/hREN
- Assay Remarks: In vitro enzymatic activity assay of renin inhibitors (fluorescence, QXL520/HiLyteFluo488 peptide substrate)
- Format: biochemical
- Test Conditions: recombinant human renin 3 nM, 1 μM substrate, pre-incubated 10 minutes at 37° C., incubation one hour, pH 7.4, 5% DMSO; read-out: IC50 of Exemplified Compounds Against Renin
# key: entry, value: IC50

Some compounds with recorded IC50:
Input: # lookup: IC50 of CCOC(=O)NCCCn1c(C(=O)N2CCNCC2)c(-c2ccccc2)n(-c2ccccc2C)c1=O
Output: > 1000 nM

Input: Can you handle O=C(c1[nH]c(=O)n(C2CCCN(S(=O)(=O)c3ccccc3)C2)c1-c1ccccc1)N1CCNCC1 (stereo not shown) next?
Output: 500 to 1000 nM

Input: Can you handle COc1cccc(S(=O)(=O)NCCn2c(C(=O)N3CCNCC3)c(-c3ccccc3)n(-c3ccccc3C)c2=O)c1 next?
Output: > 1000 nM

Input: Can you handle Cc1ccccc1-n1c(-c2ccccc2)c(C(=O)N2CCNCC2)n(CCNC(=O)Nc2ccccc2Cl)c1=O next?
Output: 500 to 1000 nM

Input: Can you handle O=C(c1c(-c2ccccc2)n(-c2cccc(N3CCOCC3)c2)c(=O)n1Cc1ccc(F)c(F)c1)N1CCNCC1 next?
Output: 500 to 1000 nM

Input: Can you handle O=C(c1[nH]c(=O)n(-c2nc3ccccc3[nH]2)c1-c1ccccc1)N1CCNCC1 next?
Output: > 1000 nM

More entries:
Input: # lookup: IC50 of COCCCOc1cccc(-n2c(-c3ccccc3)c(C(=O)N3CCNCC3)n(CCCNC(=O)CC(C)C)c2=O)c1
Output: > 1000 nM

---

# key: entry, value: IC50
- Tgt: Recombinant human renin (Homo sapiens, UniProt P00797)
- Construct: isolate the active form (residues 67-406); made in house; host or cells: FreeStyle 293-F cells, transient expression of pcDNA3.1(+)/hREN
- Assay Remarks: In vitro enzymatic activity assay of renin inhibitors (fluorescence, QXL520/HiLyteFluo488 peptide substrate)
- Type: biochemical
- Test Conditions: recombinant human renin 3 nM, 1 μM substrate, pre-incubated 10 minutes at 37° C., incubation one hour, pH 7.4, 5% DMSO; read-out: IC50 of Exemplified Compounds Against Renin

Some compounds with recorded IC50:
Input: # lookup: IC50 of Cc1ccccc1-n1c(-c2ccccc2)c(C(=O)N2CCNCC2)n(CCNC(=O)CC(C)C)c1=O
Output: > 1000 nM

Input: Can you handle O=C(c1c(-c2ccccc2)n(-c2ccccc2)c(=O)n1CC1CCOCC1)N1CCNCC1 next?
Output: > 1000 nM

Input: Can you handle NC(=O)Cn1c(C(=O)N2CCNC[C@H]2Cc2ccccc2)c(-c2ccccc2)n(C2CCCCC2)c1=O next?
Output: 100 to 500 nM

Input: Can you handle COc1ccccc1-n1c(-c2ccccc2)c(C(=O)N2CCNCC2)n(CCCNS(=O)(=O)c2ccccc2)c1=O next?
Output: 100 to 500 nM

Input: Can you handle C[C@@H]1CN(C(=O)c2[nH]c(=O)n(C3CCCCC3)c2-c2ccccc2)CCN1 next?
Output: > 1000 nM

More entries:
Input: # lookup: IC50 of Cc1ccccc1-n1c(-c2ccccc2)c(C(=O)N2CCNCC2)n(CCCNC(=O)C(C)C)c1=O
Output: > 1000 nM

Input: Can you handle O=C(c1c(-c2ccccc2)n(-c2ccccc2)c(=O)n1Cc1ccc(Cl)c(OC(F)(F)F)c1)N1CCNCC1 next?
Output: 100 to 500 nM
